System: P. falciparum 3D7 trophozoites
Experiment: Metabolomic fingerprint profiling LC-MS
Assay type: cell-based, Plasmodium falciparum
Conditions: metabolite level change after treatment
MEASURED_PROPERTY: myo-inositol
Number only, please.

Reference set, count: 3
COc1ccccc1N=C1C(=O)c2ccccc2C(O)=C1N1CCCCC1
0.5579
CC1CN(C(=O)c2sc3ccccc3c2Cl)CC(C)O1 (centres unmarked)
0.04445
CCN1CCN(Cc2ccc(NC(=O)c3cc4ccc5cccnc5c4[nH]3)cc2)CC1
-0.02428

Exam item: Reported myo-inositol, compound CCOc1cc2c(cc1OCC)C(c1cc(OC)c(O)cc1Cl)NCC2 (centres unmarked) : ____
Marked response: 3.051

Exam item: Reported myo-inositol, compound COc1ccc(C=C2SC(=N)N(c3ccccc3OC)C2=O)cc1 : ____
Marked response: 0.08809
